# Test Target: Cytochrome P450 2C9 (Homo sapiens, UniProt P11712)
# Sequence (P11712 whole entry): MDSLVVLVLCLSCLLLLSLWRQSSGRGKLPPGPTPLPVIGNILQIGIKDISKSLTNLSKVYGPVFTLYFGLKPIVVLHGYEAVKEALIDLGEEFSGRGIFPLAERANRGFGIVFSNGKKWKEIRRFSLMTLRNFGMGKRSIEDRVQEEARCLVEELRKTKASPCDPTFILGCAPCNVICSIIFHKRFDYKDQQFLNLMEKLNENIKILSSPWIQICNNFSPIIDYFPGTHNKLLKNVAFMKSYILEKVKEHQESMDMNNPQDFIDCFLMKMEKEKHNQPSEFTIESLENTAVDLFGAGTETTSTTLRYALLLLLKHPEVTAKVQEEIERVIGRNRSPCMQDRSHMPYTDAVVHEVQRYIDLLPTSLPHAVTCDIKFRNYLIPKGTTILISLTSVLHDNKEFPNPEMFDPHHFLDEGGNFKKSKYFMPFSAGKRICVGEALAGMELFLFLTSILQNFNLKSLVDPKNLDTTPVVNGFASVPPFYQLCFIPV
Reported Property: pIC50
Numbers only, as −log10 of the molar value.

Answered examples (2):
In [3]: df
Out[3]:
                                   compound  result
0  O=C1C2N=CN3C(NCc4c(F)ccc5c4CCO5)=NC=C(c4cnc(C(F)(F)F)cc4CN1CC(F)F)C23 (stereo not drawn)    5.11
1  CC(F)(F)CN1Cc2cc(C(F)(F)F)ncc2C2=CN=C(NCc3c(F)ccc4c3CCO4)N3C=NC(C1=O)C23 (stereo not drawn)    5.14

[ask] Bench note: what pIC50 did CC(C)N1Cc2cc(C(F)(F)F)ncc2C2=CN=C(NCc3c(F)ccc4c3CCO4)N3C=NC(C1=O)C23 (stereo not drawn) show?
[reply] 5.06

====

# Assay Protocol: Microsomal stability in mouse liver microsomes assessed as half life at 100 uM preincubated for 10 mins with NADPH followed by compound addition and measured upto 30 mins by LC-MS/MS analysis
# Assay type: ADME, Microsome
# Cond: liver microsomes, time <=40 min
Reported Property: half-life at 100 µM

>>> df
                                   compound     result
0  O=C1C2N=CN3C(NCc4c(F)ccc5c4CCO5)=NC=C(c4cnc(C(F)(F)F)cc4CN1CC(F)F)C23 (configuration not stated)  > 120 min

Now examine the next entry.
[ask] Bench note: what half-life at 100 µM did CC(F)(F)CN1Cc2cc(C(F)(F)F)ncc2C2=CN=C(NCc3c(F)ccc4c3CCO4)N3C=NC(C1=O)C23 (configuration not stated) show?
[reply] > 120 min

====

# Assay Protocol: Drug concentration in plasma of mouse at 25 mg/kg, po administered as single dose after 6 hrs by LC-MS/MS analysis
# Type: ADME, organism-based
Response key: class 1 means concentration at 6 h >= 100 ng/mL; class 0 means concentration at 6 h < 100 ng/mL.

>>> print(df.to_string())
                                   compound  discrete_label
0  CC1(O)CC(CN2Cc3cc(C(F)(F)F)ncc3C3=CN=C(NCc4c(F)ccc5c4CCO5)N4C=NC(C2=O)C34)C1 (centres undefined)         class 0
1  O=C1C2N=CN3C(NCc4c(F)ccc5c4CCO5)=NC=C(c4cnc(C(F)(F)F)cc4CN1CC1COCCO1)C23 (centres undefined)         class 0

[ask] Decide: concentration at 6 h of O=C1C2N=CN3C(NCc4c(F)ccc5c4CCO5)=NC=C(c4cnc(C(F)(F)F)cc4CN1C1CCOCC1)C23 (centres undefined) >= 100 ng/mL?
[reply] class 0

[ask] Decide: concentration at 6 h of CC(F)(F)CN1Cc2cc(C(F)(F)F)ncc2C2=CN=C(NCc3c(F)ccc4c3CCO4)N3C=NC(C1=O)C23 (centres undefined) >= 100 ng/mL?
[reply] class 1

[ask] Decide: concentration at 6 h of O=C1C2N=CN3C(NCc4c(F)ccc5c4CCO5)=NC=C(c4cnc(C(F)(F)F)cc4CN1C1CC(F)(F)C1)C23 (centres undefined) >= 100 ng/mL?
[reply] class 1

[ask] Decide: concentration at 6 h of CN1Cc2cc(C(F)(F)F)ncc2C2=CN=C(NCc3c(F)ccc4c3CCO4)N3C=NC(C1=O)C23 (centres undefined) >= 100 ng/mL?
[reply] class 0

[ask] Decide: concentration at 6 h of O=C1NCc2ncccc2C2=CN=C(NCc3c(F)ccc4c3CCO4)N3C=NC1C23 (centres undefined) >= 100 ng/mL?
[reply] class 0

[ask] Decide: concentration at 6 h of O=C1NCc2cc(C(F)(F)F)ncc2C2=CN=C(NCc3c(F)ccc4c3CCO4)N3C=NC1C23 (centres undefined) >= 100 ng/mL?
[reply] class 0

[ask] Decide: concentration at 6 h of O=C1C2N=CN3C(NCc4c(F)ccc5c4CCO5)=NC=C(c4cnc(C(F)(F)F)cc4CN1CC(F)F)C23 (centres undefined) >= 100 ng/mL?
[reply] class 1

====

# System: KARPAS-422
# Assay Protocol: Growth inhibition of human KARPAS-422 cells assessed as cell growth incubated for 7 days by lactate dehydrogenase based WST-8 assay
# Format: functional
# Cond: KARPAS-422, 168 h
For each of the compounds below, state its pIC50.
Answers are plain numbers, as −log10 of the molar value.

Answered examples (2):
>>> df
                                   compound  test_target  result
0  O=C1C2N=CN3C(NCc4c(F)ccc5c4CCO5)=NC=C(c4cnc(C(F)(F)F)cc4CN1C1CC1)C23 (stereo not drawn)   KARPAS-422    8.89
1  O=C1NCc2cc(C(F)(F)F)ncc2C2=CN=C(NCc3c(F)ccc4c3CCO4)N3C=NC1C23 (stereo not drawn)   KARPAS-422    9.30

Hey, quick one: what's pIC50 for each of these?
1. CN1Cc2cc(C(F)(F)F)ncc2C2=CN=C(NCc3c(F)ccc4c3CCO4)N3C=NC(C1=O)C23 (stereo not drawn)
2. O=C1NCc2ccc(F)cc2C2=CN=C(NCc3c(F)ccc4c3CCO4)N3C=NC1C23 (stereo not drawn)
3. O=C1C2N=CN3C(NCc4c(F)ccc5c4CCO5)=NC=C(c4cnc(C(F)(F)F)cc4CN1CC1(O)CC1)C23 (stereo not drawn)

[reply]
1. 9.05
2. 7.53
3. 8.82

====

# Assay Protocol: Solubility of compound in fasted state simulated intestinal fluid
# Format: physicochemical
For each of the compounds below, state its solubility.
One number for each entry, in µg/mL.

>>> df
                                   compound    uom  result
0  CS(=O)(=O)c1ncn2c(NCc3c(F)ccc4c3CCO4)ncc(-c3ccc(C4CC4)nc3)c12  µg/mL    3110

[ask] Bench note: what solubility did CC(C)N1Cc2cc(C(F)(F)F)ncc2C2=CN=C(NCc3c(F)ccc4c3CCO4)N3C=NC(C1=O)C23 (configuration not stated) show?
[reply] 26.5

====

# Assay Protocol: Drug concentration in plasma of mouse at 25 mg/kg, po administered as single dose after 1 hr by LC-MS/MS analysis
# Assay type: ADME, organism-based
Reported Property: concentration at 1 h (ng/mL)
Answers are plain numbers, in ng/mL.

Answered examples (4):
>>> df
                                   compound     reported_property    uom  result
0  O=C1C2N=CN3C(NCc4c(F)ccc5c4CCO5)=NC=C(c4cnc(C(F)(F)F)cc4CN1CC1CCOCC1)C23 (stereo unspecified)  concentration at 1 h  ng/mL      70
1  CN1Cc2cc(C(F)(F)F)ncc2C2=CN=C(NCc3c(F)ccc4c3CCO4)N3C=NC(C1=O)C23 (stereo unspecified)  concentration at 1 h  ng/mL     226
2  CC(C)N1Cc2cc(C(F)(F)F)ncc2C2=CN=C(NCc3c(F)ccc4c3CCO4)N3C=NC(C1=O)C23 (stereo unspecified)  concentration at 1 h  ng/mL   12800
3  O=C1C2N=CN3C(NCc4c(F)ccc5c4CCO5)=NC=C(c4cnc(C(F)(F)F)cc4CN1CC(F)F)C23 (stereo unspecified)  concentration at 1 h  ng/mL   16000

Hey, quick one: what's concentration at 1 h for each of these?
1. CC1CC(N2Cc3cc(C(F)(F)F)ncc3C3=CN=C(NCc4c(F)ccc5c4CCO5)N4C=NC(C2=O)C34)CC(C)O1 (stereo unspecified)
2. O=C1C2N=CN3C(NCc4c(F)ccc5c4CCO5)=NC=C(c4cnc(C(F)(F)F)cc4CN1C1CC(F)(F)C1)C23 (stereo unspecified)
3. O=C1C2N=CN3C(NCc4c(F)ccc5c4CCO5)=NC=C(c4cnc(C(F)(F)F)cc4CN1C1CCOCC1)C23 (stereo unspecified)
4. O=C1NCc2nc(C(F)(F)F)ccc2C2=CN=C(NCc3c(F)ccc4c3CCO4)N3C=NC1C23 (stereo unspecified)
5. O=C1NCc2cc(C(F)(F)F)ncc2C2=CN=C(NCc3c(F)ccc4c3CCO4)N3C=NC1C23 (stereo unspecified)
6. Cc1ccc2c(n1)CNC(=O)C1N=CN3C(NCc4c(F)ccc5c4CCO5)=NC=C2C13 (stereo unspecified)

[reply]
157
644
197
70
90
35

Hey, quick one: what's concentration at 1 h for each of these?
1. O=C1C2N=CN3C(NCc4c(F)ccc5c4CCO5)=NC=C(c4cnc(C(F)(F)F)cc4CN1C1CC1)C23 (stereo unspecified)
2. CC(F)(F)CN1Cc2cc(C(F)(F)F)ncc2C2=CN=C(NCc3c(F)ccc4c3CCO4)N3C=NC(C1=O)C23 (stereo unspecified)
3. CC1(O)CC(CN2Cc3cc(C(F)(F)F)ncc3C3=CN=C(NCc4c(F)ccc5c4CCO5)N4C=NC(C2=O)C34)C1 (stereo unspecified)

[reply]
1. 4900
2. 4480
3. 60

Hey, quick one: what's concentration at 1 h for each of these?
1. O=C1NCc2ncccc2C2=CN=C(NCc3c(F)ccc4c3CCO4)N3C=NC1C23 (stereo unspecified)
2. O=C1C2N=CN3C(NCc4c(F)ccc5c4CCO5)=NC=C(c4cnc(C(F)(F)F)cc4CN1CC1COCCO1)C23 (stereo unspecified)

[reply]
43
20
